system-under-test: Broad substrate specificity ATP-binding cassette transporter ABCG2 (Homo sapiens)
Sequence (Q9UNQ0 whole entry): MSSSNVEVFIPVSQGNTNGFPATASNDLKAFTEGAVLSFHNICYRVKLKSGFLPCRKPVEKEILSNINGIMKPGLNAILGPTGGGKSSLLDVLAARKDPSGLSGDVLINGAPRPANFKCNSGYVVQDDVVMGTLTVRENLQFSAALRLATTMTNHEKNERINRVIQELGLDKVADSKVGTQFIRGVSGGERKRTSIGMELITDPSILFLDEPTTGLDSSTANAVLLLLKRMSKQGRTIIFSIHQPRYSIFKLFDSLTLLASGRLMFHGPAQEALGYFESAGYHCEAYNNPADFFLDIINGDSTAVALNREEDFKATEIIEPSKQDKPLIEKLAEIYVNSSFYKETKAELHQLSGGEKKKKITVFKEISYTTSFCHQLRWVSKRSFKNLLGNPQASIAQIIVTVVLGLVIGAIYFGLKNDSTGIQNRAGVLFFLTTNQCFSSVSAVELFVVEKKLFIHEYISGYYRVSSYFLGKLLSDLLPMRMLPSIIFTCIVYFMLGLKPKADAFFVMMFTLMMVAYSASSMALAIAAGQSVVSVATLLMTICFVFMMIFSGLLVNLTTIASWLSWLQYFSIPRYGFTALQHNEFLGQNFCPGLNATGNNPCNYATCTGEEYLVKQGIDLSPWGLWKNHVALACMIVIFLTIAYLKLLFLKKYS
procedure-summary: Binding affinity to ABCG2 (unknown origin) expressed in HEK293 cells assessed as modulation of 5D3 binding at 2 uM after 45 mins by flow cytometric analysis relative to Ko143
Format: cell-based
measurement-context: hek293, 0.75 h
# note: boundary value 90% maps to Criterion not met; Activity below it maps to Criterion met

State whether 90% exceeds Activity recorded for `COc1ccc2[nH]cc(CCN(C)C(=O)c3cc(=O)c4c(OCc5ccc(Br)cc5)cccc4o3)c2c1` .
Criterion met

State whether 90% exceeds Activity recorded for `CN(CCc1cn(C)c2ccccc12)C(=O)c1cc(=O)c2c(OCc3ccc(Br)cc3)cccc2o1` .
Criterion met

State whether 90% exceeds Activity recorded for `O=C(NCc1cn(Cc2ccccc2)nn1)c1cc(=O)c2c(OCc3ccc(Br)cc3)cccc2o1` .
Criterion met

State whether 90% exceeds Activity recorded for `COc1ccc2[nH]cc(CCN(C)Cc3cc(=O)c4c(OCc5ccc(Br)cc5)cccc4o3)c2c1` .
Criterion met

State whether 90% exceeds Activity recorded for `CN(CCc1c[nH]c2ccccc12)C(=O)c1cc(=O)c2cc(OCc3ccc(Br)cc3)ccc2o1` .
Criterion met

State whether 90% exceeds Activity recorded for `COc1ccc2c(CCNC(=O)c3cc(=O)c4c(OCc5ccc(Br)cc5)cccc4o3)c[nH]c2c1` .
Criterion not met

State whether 90% exceeds Activity recorded for `O=C(NCc1cn(CCc2c[nH]c3ccccc23)nn1)c1cc(=O)c2c(OCc3ccc(Br)cc3)cccc2o1` .
Criterion not met

State whether 90% exceeds Activity recorded for `CN(CCc1cn(C)c2ccccc12)C(=O)c1cc(=O)c2cc(OCc3ccc(Br)cc3)ccc2o1` .
Criterion met
